Recorded log P by entry
# test: Determination of the log P values by HPLC (formic acid method)
# Format: physicochemical
# condition.info: reversed-phase column (C 18), acidic range (pH 3.4), 55° C.
measurement.name: log P

- Cn1cc([N+](=O)[O-])c(C(=O)Nc2ccn(-c3c(F)cccc3F)n2)n1 [Compound I-1-241]: 1.90
- O=C(Nc1ccn(-c2ncccc2F)n1)c1ccccc1C(F)(F)F [Compound I-1-128]: 2.24
- CC(C)Cc1nn(C)c(C(=O)Nc2ccn(-c3ncc(F)cc3F)n2)c1[N+](=O)[O-] [Compound I-1-508]: 3.02
- O=C(Nc1cnn(-c2c(F)cccc2F)n1)c1cccnc1C(F)(F)F [Compound I-2-76]: 2.40
- O=C(NC1=NN(c2ccccc2Cl)CC1)c1ccccc1Br [Compound I-4-8]: 2.37
- O=C(Nc1cnn(-c2ccccc2Cl)n1)c1cccnc1C(F)(F)F [Compound I-2-4]: 2.54
- O=C(Nc1cnn(-c2c(F)cccc2F)n1)c1c(F)cccc1C(F)(F)F [Compound I-2-39]: 2.88
- N#Cc1cc(F)c(-n2nc(NC(=O)c3ccccc3C(F)(F)F)c3c(F)cccc32)cc1F [Compound I-5-10]: 3.26
- O=C(Nc1nn(-c2ncc(C(F)(F)F)cc2Cl)c2ccccc12)c1ccccc1Br [Compound I-5-5]: 3.98
- O=C(Nc1ccn(-c2c(F)cccc2F)n1)c1snnc1C1CC1 [Compound I-1-319]: 2.68
- O=C(Nc1ccn(-c2ccccc2Cl)n1)c1nccnc1C(F)(F)F [Compound I-1-44]: 2.74
- O=C(Nc1ccn(-c2ncccc2F)n1)c1cccnc1OC(F)(F)F [Compound I-1-577]: 2.33
- CCCn1cc(Cl)c(C(=O)Nc2ccn(-c3ncc(F)cc3F)n2)n1 [Compound I-1-533]: 2.85
- O=C(Nc1cnn(-c2ncccc2F)n1)c1ccccc1C(F)(F)F [Compound I-2-44]: 2.18
- O=C(Nc1ccn(-c2ccccc2Cl)n1)c1ccccc1Br [Compound I-1-32]: 2.83
- O=C(Nc1ccn(-c2ccc(F)cc2F)n1)c1ccccc1Br [Compound I-1-209]: 2.95
- Cc1nn(-c2ncccc2Cl)nc1N(C(=O)c1ccccc1I)C(=O)c1ccccc1I [Compound I-2-61]: 4.03
- O=C(Nc1ccn(-c2cccc(F)c2F)n1)c1ccccc1C(F)(F)F [Compound I-1-64]: 3.02
- O=C(Nc1ccn(-c2c(F)cccc2F)n1)c1ccncc1C(F)(F)F [Compound I-1-97]: 2.16
- O=C(Nc1ccn(-c2ncc(F)cn2)n1)c1ccccc1Br [Compound I-1-603]: 1.94
- C=CCN(C(=O)c1ccccc1C(F)(F)F)c1ccn(-c2ncc(F)cc2F)n1 [Compound I-1-469]: 3.38
- O=C(c1cccc(Cl)c1Cl)N(C(=O)c1cccc(Cl)c1Cl)c1ccn(-c2ncc(F)cc2F)n1 [Compound I-1-477]: 4.47
- O=C(Nc1cnn(-c2c(F)cccc2F)n1)c1ccsc1I [Compound I-2-40]: 2.90
- Cc1nonc1C(=O)Nc1ccn(-c2ncc(F)cc2F)n1 [Compound I-1-542]: 2.22
- O=C(NC1=NN(c2c(F)cccc2F)CC1)c1ccccc1Cl [Compound I-4-1]: 2.75
- O=C(Nc1ccn(-c2ccc(Cl)cc2Cl)n1)c1ccccc1Br [Compound I-1-199]: 3.44
- N#Cc1cc(F)ccc1-n1ccc(NC(=O)c2ccccc2Br)n1 [Compound I-1-629]: 2.55
- COc1ccccc1-n1ccc(NC(=O)c2cc(C)oc2C)n1 [Compound I-1-3]: 2.87
- CC1=C(C(=O)Nc2ccn(-c3ncc(F)cc3F)n2)CCCO1 [Compound I-1-548]: 2.10
- Cc1ccccc1C(=O)Nc1ccn(-c2c(F)cccc2F)n1 [Compound I-1-73]: 2.60
- O=C(Nc1ccn(-c2ncc(F)cc2F)n1)c1nccnc1Cl [Compound I-1-485]: 1.89
- O=C(Nc1ccn(-c2ccccc2Br)n1)c1c(F)cccc1F [Compound I-1-334]: 2.70
- Cn1nc(C(F)(F)F)c(C(=O)Nc2ccn(-c3ccccc3Br)n2)c1F [Compound I-1-59]: 3.00
- O=C(Nc1ccn(-c2ncc(F)cn2)n1)c1ccccc1C(F)(F)F [Compound I-1-600]: 2.13
- Cc1nc(-n2ccc(NC(=O)c3cccnc3C(F)(F)F)n2)c(F)cc1F [Compound I-1-440]: 2.38
